Source: ChEMBL document CHEMBL1129691

# experimental.protocol: PKa value of the N in quinoline ring is determined in 1-cm UV cell titreated with HCl or NaOH
# Assay type: physicochemical
# settings: buffer
# pKa values compiled below

CNCCN(C)c1cc(-c2ccc3ccccc3c2)nc2ccccc12 :: 6.2
CN(C)CCSc1cc(-c2ccc3ccccc3c2)nc2ccccc12 :: 4.4
CN(C)CCNc1cc(-c2ccc3ccccc3c2)nc2ccccc12 :: 7.1

Query: I would be grateful if you could share the reported pKa for "CN1CCN(c2cc(-c3ccc4ccccc4c3)nc3ccccc23)CC1" .
Response: 5.6

* * *

# System: Nucleic Acid
# experimental.protocol: Temperature (delta Tm) for DNA duplex denaturation evaluated by thermal melting
# Assay type: nucleic-acid assay
ΔTm vs 0.4 °C: less than gives Fulfilled; not less than gives Not fulfilled.

Observe how each entry below is paired with its result.
CN(C)CCNc1cc(-c2cccs2)nc2ccccc12 :: Not fulfilled
CNCCN(C)c1cc(-c2ccc3cc(C)ccc3c2)nc2ccccc12 :: Not fulfilled
CN(C)CCNc1cc(-c2ccccc2)nc2ccccc12 :: Fulfilled
CN(C)CCNc1cc(-c2cccc3ccccc23)nc2ccccc12 :: Fulfilled
CN(C)CCN(C)C(=O)c1cc(-c2ccc3ccccc3c2)nc2ccccc12 :: Fulfilled
CN(C)CCNc1cc(-c2ccc3ccccc3c2)nc2ccccc12 :: Not fulfilled

Query: Problem: For the compound "CN1CCN(c2cc(-c3ccccc3)nc3ccccc23)CC1" , is ΔTm under 0.4 °C?
Response: Fulfilled

Query: Problem: For the compound "CN(C)CCNc1cc(-c2ccc3c(c2)Nc2ccccc2S3)nc2ccccc12" , is ΔTm under 0.4 °C?
Response: Not fulfilled

Query: Problem: For the compound "CNCCN(C)c1cc(-c2ccc3ccccc3c2)nc2ccccc12" , is ΔTm under 0.4 °C?
Response: Fulfilled

* * *

# System: Nucleic Acid
# experimental.protocol: Temperature (delta Tm) for DNA triplex to duplex and single stranded transitions [Poly(dT.dA.dT) to Poly(dA.dT) and Poly(dT)]
# Format: nucleic-acid assay
observation.type: ΔTm (°C)
Please state the figure in °C; there is no need to write the unit.

CN(C)CCNc1cc(-c2cccs2)nc2ccccc12 :: 9.4
CN1CCN(c2cc(-c3ccc4c(ccc5ccccc54)c3)nc3ccccc23)CC1 :: 18.6
CNCCN(C)c1cc(-c2ccc3ccccc3c2)nc2ccccc12 :: 24.1
Cc1ccc2cc(-c3cc(NCCN(C)C)c4ccccc4n3)ccc2c1 :: 32.9
CN(C)CCNc1cc(-c2ccccc2)nc2ccccc12 :: 11.9

Query: # returns recorded ΔTm (system: Nucleic Acid) for "CN1CCN(c2cc(-c3ccc4ccccc4c3)nc3ccccc23)CC1"
Response: 19.1

Query: # returns recorded ΔTm (system: Nucleic Acid) for "CNCCN(C)c1cc(-c2ccc3cc(C)ccc3c2)nc2ccccc12"
Response: 23

* * *

# Test system: Nucleic Acid
# experimental.protocol: Temperature (delta Tm) for DNA duplex denaturation evaluated by thermal melting
# Format: nucleic-acid assay
Parameter threshold = 2 °C. Response is 1.0 when ΔTm meets or exceeds it, else 0.0.

Observe how each entry below is paired with its result.
Cc1ccc2cc(-c3cc(NCCN(C)C)c4ccccc4n3)ccc2c1 :: 1.0
CN(C)CCN(C)c1cc(-c2cccs2)nc2ccccc12 :: 0.0
CN1CCN(c2cc(-c3ccc4ccccc4c3)nc3ccccc23)CC1 :: 0.0
CNCCN(C)c1cc(-c2ccc3c(c2)Nc2ccccc2S3)nc2ccccc12 :: 0.0
CN(C)CCNc1cc(-c2ccc3c(ccc4ccccc43)c2)nc2ccccc12 :: 1.0
CN1CCN(c2cc(-c3ccc4c(ccc5ccccc54)c3)nc3ccccc23)CC1 :: 0.0
Cc1ccc2cc(-c3cc(N4CCN(C)CC4)c4ccccc4n3)ccc2c1 :: 0.0
Cc1ccc2cc(-c3cc(N(C)CCN(C)C)c4ccccc4n3)ccc2c1 :: 0.0

Query: Can "CN(C)CCSc1cc(-c2ccc3ccccc3c2)nc2ccccc12" be said to have ΔTm at or above 2 °C?
Response: 0.0
